Molecular target: UniProtKB P35354
Sequence (P35354 18-604): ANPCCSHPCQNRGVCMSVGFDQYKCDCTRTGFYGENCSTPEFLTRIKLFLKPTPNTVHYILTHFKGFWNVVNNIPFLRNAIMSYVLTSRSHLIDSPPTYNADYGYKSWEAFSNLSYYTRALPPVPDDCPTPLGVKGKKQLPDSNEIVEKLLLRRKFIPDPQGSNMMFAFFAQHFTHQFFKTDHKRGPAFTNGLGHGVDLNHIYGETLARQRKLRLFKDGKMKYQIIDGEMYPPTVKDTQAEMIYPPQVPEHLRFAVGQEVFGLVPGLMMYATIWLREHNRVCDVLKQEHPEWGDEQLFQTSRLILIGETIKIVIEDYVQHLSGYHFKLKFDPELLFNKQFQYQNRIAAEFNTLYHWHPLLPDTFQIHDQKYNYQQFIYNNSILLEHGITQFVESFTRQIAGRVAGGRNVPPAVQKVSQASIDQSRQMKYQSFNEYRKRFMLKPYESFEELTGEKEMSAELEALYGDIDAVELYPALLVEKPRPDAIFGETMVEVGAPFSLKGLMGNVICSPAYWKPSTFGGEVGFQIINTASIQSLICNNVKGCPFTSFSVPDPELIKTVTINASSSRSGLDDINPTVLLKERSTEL
Experiment: Human whole blood COX-2 assay: LPS-stimulated PGE2 production
Type: cell-based
Conditions: compound final concn 1 μM, control 1.98
Give measured PGE2, +LPS for each item. Keep answers brief.
Provide only the numeric value, understood in ng/mL.

INPUT: Give its PGE2, +LPS value. Item: CC1=NN(c2cccc(Cl)c2)C(=O)/C1=C\c1cn(-c2nc(N3CCOCC3)nc(N3CCOCC3)n2)c2ccccc12 [Compound 6]
OUTPUT: 0.91

INPUT: Then what about the compound CC1=NN(c2cccc(Cl)c2)C(=O)/C1=C\c1cn(-c2nc(N3CCCCC3)nc(N3CCOCC3)n2)c2ccccc12 [Compound 12] ?
OUTPUT: 0.95

INPUT: Then what about the compound O=C1Nc2ccccc2/C1=C/c1cn(-c2nc(N3CCCCC3)nc(N3CCOCC3)n2)c2ccccc12 [Compound 10] ?
OUTPUT: 1.02

INPUT: Then what about the compound CC1=NN(c2cccc(Cl)c2)C(=O)/C1=C\c1cn(-c2nc(N3CCCC3)nc(N3CCOCC3)n2)c2ccccc12 [Compound 17] ?
OUTPUT: 1.00

----------
Assay: In vivo pharmacokinetic study
Parameters: species or system rat
Conditions: male, Wistar, rat, serum, ip, 10 mg/kg, t1/2, male wistar rat, 10 mg kg^–1 i.p.
observed_property: half-life
# number then unit; no other words

INPUT: Give its half-life value. Item: "CC1=NN(c2cccc(Cl)c2)C(=O)/C1=C\c1cn(-c2nc(N3CCOCC3)nc(N3CCOCC3)n2)c2ccccc12"
OUTPUT: 5.47 h

----------
Test: In vivo pharmacokinetic study
Parameters: species or system rat
Conditions: male, Wistar, rat, serum, ip, 10 mg/kg
observed_property: k el (s⁻¹)
Provide only the numeric value, understood in s⁻¹.

INPUT: Give its k el value. Item: "CC1=NN(c2cccc(Cl)c2)C(=O)/C1=C\c1cn(-c2nc(N3CCOCC3)nc(N3CCOCC3)n2)c2ccccc12"
OUTPUT: 3.52e-05

----------
Test: In vivo pharmacokinetic study
Parameters: species or system rat
Settings: male, Wistar, rat, serum, ip, 10 mg/kg, half-life, male wistar rat, 10 mg kg^–1 i.p.
observed_property: half-life (h)
Provide only the numeric value, understood in h.

INPUT: Give its half-life value. Item: "CC1=NN(c2cccc(Cl)c2)C(=O)/C1=C\c1cn(-c2nc(N3CCOCC3)nc(N3CCOCC3)n2)c2ccccc12"
OUTPUT: 5.5

----------
Test: In vivo pharmacokinetic study
Set-up: species or system rat
Conditions: male, Wistar, rat, serum, ip, 10 mg/kg
observed_property: Tmax
# number then unit; no other words

INPUT: Give its Tmax value. Item: "CC1=NN(c2cccc(Cl)c2)C(=O)/C1=C\c1cn(-c2nc(N3CCOCC3)nc(N3CCOCC3)n2)c2ccccc12"
OUTPUT: 3 h

----------
Target: UniProtKB P23219
Sequence (P23219 24-599): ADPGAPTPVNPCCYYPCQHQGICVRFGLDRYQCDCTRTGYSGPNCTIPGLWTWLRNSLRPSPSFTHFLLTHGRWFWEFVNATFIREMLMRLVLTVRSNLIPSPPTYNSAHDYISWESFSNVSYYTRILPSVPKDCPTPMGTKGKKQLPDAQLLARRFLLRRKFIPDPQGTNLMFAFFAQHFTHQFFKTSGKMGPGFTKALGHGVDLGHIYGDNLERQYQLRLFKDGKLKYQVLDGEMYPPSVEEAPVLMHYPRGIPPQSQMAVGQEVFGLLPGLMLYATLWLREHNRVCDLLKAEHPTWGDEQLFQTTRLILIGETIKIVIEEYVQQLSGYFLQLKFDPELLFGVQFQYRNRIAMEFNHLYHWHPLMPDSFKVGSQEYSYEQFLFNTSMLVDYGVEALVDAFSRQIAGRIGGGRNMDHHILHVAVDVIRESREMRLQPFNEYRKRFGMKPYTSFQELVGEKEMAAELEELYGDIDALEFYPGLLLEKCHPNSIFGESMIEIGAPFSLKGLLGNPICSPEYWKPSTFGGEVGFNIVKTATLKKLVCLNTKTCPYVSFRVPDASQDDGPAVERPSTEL
Experiment: Human whole blood COX-1 assay: calcium ionophore
Format: cell-based
Conditions: compound final concn 1 μM, control 2.00
observed_property: TXB2, +calcium ionophore (ng/mL)
Provide only the numeric value, understood in ng/mL.

INPUT: Give its TXB2, +calcium ionophore value. Item: O=C1Nc2ccccc2/C1=C/c1cn(-c2nc(N3CCCCC3)nc(N3CCOCC3)n2)c2ccccc12 [Compound 10]
OUTPUT: 1.55

INPUT: Then what about the molecule CC1=NN(c2cccc(Cl)c2)C(=O)/C1=C\c1cn(-c2nc(N3CCCC3)nc(N3CCOCC3)n2)c2ccccc12 [Compound 17] ?
OUTPUT: 1.70

INPUT: Then what about the molecule CC1=NN(c2cccc(Cl)c2)C(=O)/C1=C\c1cn(-c2nc(N3CCOCC3)nc(N3CCOCC3)n2)c2ccccc12 [Compound 6] ?
OUTPUT: 1.85

INPUT: Then what about the molecule CC1=NN(c2cccc(Cl)c2)C(=O)/C1=C\c1cn(-c2nc(N3CCCCC3)nc(N3CCOCC3)n2)c2ccccc12 [Compound 12] ?
OUTPUT: 1.75

----------
Target: UniProt:P23219
Assay: Human whole blood COX-1 assay: calcium ionophore
Type: cell-based
Conditions: 1 μM, in words
observed_property: effect on ionophore-stimulated TXB2 production

INPUT: Form: Entry = "CC1=NN(c2cccc(Cl)c2)C(=O)/C1=C\c1cn(-c2nc(N3CCCCC3)nc(N3CCOCC3)n2)c2ccccc12" | System = UniProt:P23219 | effect on ionophore-stimulated TXB2 production = ____
OUTPUT: did not affect

INPUT: Then what about the compound "O=C1Nc2ccccc2/C1=C/c1cn(-c2nc(N3CCCCC3)nc(N3CCOCC3)n2)c2ccccc12" ?
OUTPUT: did not affect

INPUT: Then what about the compound "CC1=NN(c2cccc(Cl)c2)C(=O)/C1=C\c1cn(-c2nc(N3CCCC3)nc(N3CCOCC3)n2)c2ccccc12" ?
OUTPUT: did not affect

INPUT: Then what about the compound "CC1=NN(c2cccc(Cl)c2)C(=O)/C1=C\c1cn(-c2nc(N3CCOCC3)nc(N3CCOCC3)n2)c2ccccc12" ?
OUTPUT: did not affect
